Give Ki for every item shown.
Kindly answer with a numeric value in µM, unit omitted.

Item: NC(=O)[C@H](Cc1ccccc1)NC(=O)[C@H](Cc1ccccc1)NC(=O)[C@@H]1Cc2ccccc2CN1C(=O)[C@@H](N)Cc1ccc(O)cc1 Test system: Mu-type opioid receptor (Rattus norvegicus, UniProt P33535) Read-out: Ki Value: ?
0.178

Item: C[C@@H](c1ccc(O)cc1)[C@H](N)C(=O)N1Cc2ccccc2C[C@H]1C(=O)N[C@@H](Cc1ccccc1)C(=O)N[C@@H](Cc1ccccc1)C(N)=O Test system: Mu-type opioid receptor (Rattus norvegicus, UniProt P33535) Read-out: Ki Value: ?
0.352

Item: NC(=O)[C@H](Cc1ccccc1)NC(=O)[C@@H](Cc1ccccc1)NC(=O)[C@@H]1Cc2ccccc2CN1C(=O)[C@@H](N)Cc1ccc(O)cc1 Test system: Mu-type opioid receptor (Rattus norvegicus, UniProt P33535) Read-out: Ki Value: ?
0.658
